Below, each entry is listed with its recorded Relative binding affinity of peptide to HLA-DR molecules DRB1*1502.
Target: HLA-DRB1*15:02 (Homo sapiens, UniProt P01903+P01911, V115G)
Construct: HLA-DR heterodimers were purified from homozygous Epstein–Barr virus B-lymphoblastoid cell lines; host or cells: homozygous EBV B-lymphoblastoid cell line
Assay: Peptide/HLA-DR binding, competitive ELISA
Conditions: ratio IC50 of peptide / IC50 of reference peptide TFR 607–620, lower = higher affinity, ratio 20 or less high, 20–100 moderate, three independent experiments

[
  {
    "SUBSTANCE": "3: SseB overlapping library peptide, residues 21–40 (GVSNADTGSQDDLSQQNPFA) [Peptide 3]",
    "OBSERVED RESULT": "> 3 333"
  },
  {
    "SUBSTANCE": "12: SseB overlapping library peptide, residues 111–130 (GILIDGMTIDDYMAKYGDHG) [Peptide 12]",
    "OBSERVED RESULT": "1 826"
  },
  {
    "SUBSTANCE": "13: SseB overlapping library peptide, residues 121–140 (DYMAKYGDHGKLDKGGLQAI) [Peptide 13]",
    "OBSERVED RESULT": "2 000"
  }
]

// query Kindly indicate its recorded Relative binding affinity of peptide to HLA-DR molecules DRB1*1502. Item: 15: SseB overlapping library peptide, residues 141–160 (KAALDNDANRNTDLMSQGQI) [Peptide 15]
// result > 3 333

// query Please supply the value of reported Relative binding affinity of peptide to HLA-DR molecules DRB1*1502 for the item 6: SseB overlapping library peptide, residues 51–70 (MVIQAIANNKFIEVQKNAER) [Peptide 6]
// result 577

// query Tell me its Relative binding affinity of peptide to HLA-DR molecules DRB1*1502 given MSSGNILWGSQNPIVFKNSF [Peptide 1, SseB overlapping library peptide, residues 1–20] as the entry.
// result > 3 333

// query State, in one line, measured Relative binding affinity of peptide to HLA-DR molecules DRB1*1502 of 4: SseB overlapping library peptide, residues 31–50 (DDLSQQNPFAEGYGVLLILL) [Peptide 4]
// result 55

// query // Input: 17: SseB overlapping library peptide, residues 161–180 (TIQKMSQELNAVLTQLTGLI) [Peptide 17] . Output its Relative binding affinity of peptide to HLA-DR molecules DRB1*1502 only.
// result > 3 333

// query Given the substance 14: SseB overlapping library peptide, residues 131–150 (KLDKGGLQAIKAALDNDANR) [Peptide 14] , write its reported Relative binding affinity of peptide to HLA-DR molecules DRB1*1502.
// result > 3 333

// query Consider the substance 8: SseB overlapping library peptide, residues 71–90 (ARNTQEKSNEMDEVIAKAAK) [Peptide 8] . State its measured Relative binding affinity of peptide to HLA-DR molecules DRB1*1502.
// result > 3 333

// query Recall and state the measured Relative binding affinity of peptide to HLA-DR molecules DRB1*1502 for 9: SseB overlapping library peptide, residues 81–100 (MDEVIAKAAKGDAKTKEEVP) [Peptide 9] .
// result > 3 333

----------
Biological target: HLA-DRB1*15:01 (Homo sapiens, UniProt P01903+P01911)
Construct: HLA-DR heterodimers were purified from homozygous Epstein–Barr virus B-lymphoblastoid cell lines; host or cells: homozygous EBV B-lymphoblastoid cell line
Assay: Peptide/HLA-DR binding, competitive ELISA
Conditions: ratio IC50 of peptide / IC50 of reference peptide A3 152–166, lower = higher affinity, ratio 20 or less high, 20–100 moderate, three independent experiments
RECORDED ENDPOINT: Relative binding affinity of peptide to HLA-DR molecules DRB1*1501
// no unit, no text: just the number

[
  {
    "SUBSTANCE": "4: SseB overlapping library peptide, residues 31–50 (DDLSQQNPFAEGYGVLLILL) [Peptide 4]",
    "OBSERVED RESULT": 10
  },
  {
    "SUBSTANCE": "MSSGNILWGSQNPIVFKNSF [Peptide 1, SseB overlapping library peptide, residues 1–20]",
    "OBSERVED RESULT": 7
  }
]

Next substance, Relative binding affinity of peptide to HLA-DR molecules DRB1*1501 to be filled in.
// query Look up and report Relative binding affinity of peptide to HLA-DR molecules DRB1*1501, with HLA-DRB1*15:01 (Homo sapiens, UniProt P01903+P01911) as system, for 7: SseB overlapping library peptide, residues 61–80 (FIEVQKNAERARNTQEKSNE) [Peptide 7]
// result 211
